# System: MOLT-4
# Assay name: NCI tumour cell line growth inhibition, 48 h
Calls of active or inactive are those of the source. Cut-off read from the data, not from the text of the source: active = GI50 up to about 1.1 µM and inactive = higher.
Hello, when you answer, please use one of the following outcomes: y (active), n (inactive)

{"Molecule": "COc1ccc(C2C3=C(COC3=O)Oc3cc4c(cc32)OCO4)cc1OC (stereo unspecified)", "Target or test system": "MOLT-4", "Qualitative label": "y"}
{"Molecule": "O=C(Nc1nc2ccc([N+](=O)[O-])cc2s1)C(=O)C(C1OC(=O)c2ccccc21)[N+](=O)[O-] (stereo unspecified)", "Target or test system": "MOLT-4", "Qualitative label": "n"}
{"Molecule": "CC(=O)OC1COC(n2nc(/C=C/c3ccc(Cl)cc3)c(=O)n(/N=C/c3ccccc3)c2=S)C(OC(C)=O)C1OC(C)=O (stereo unspecified)", "Target or test system": "MOLT-4", "Qualitative label": "n"}
{"Molecule": "O=c1c2cccnc2n2n1Cc1ccccc1C2", "Target or test system": "MOLT-4", "Qualitative label": "n"}
{"Molecule": "COC(=O)[C@H](Cc1c[nH]c2ccccc12)NC(=O)c1ccccc1I", "Target or test system": "MOLT-4", "Qualitative label": "n"}

Here's the next entry for you.
Fill in: this test's call for c1ccc(CCCN2C3CCC2CN(CCOC(c2ccccc2)c2ccccc2)C3)cc1 is ___
n

----------
# System: NCI-H460
# Assay name: NCI tumour cell line growth inhibition, 48 h
Activity calls are given as the source filed them. Cut-off read from the data, not from the text of the source: active = GI50 up to about 1.1 µM and inactive = higher.
What GI50 was measured for each of the following?

{"Compound": "N#CC1C(=O)Nc2sc(C(=O)c3ccc(Br)cc3)c(N)c2C12CCCCC2 (stereo not given)", "Readout": "GI50", "Result": "28.2 µM (inactive)"}

Quick batch: GI50 for everything below.
1. COc1ccc(C2SC(=N)Nc3c2c(C)nn3C(=O)c2ccncc2)cc1 (stereo not given)
2. C/C(=N\NC(=S)NCc1ccccc1)c1nc2cccnc2[nH]1
3. Sc1nn2c(COc3cc(Cl)c(OCc4nnc5sc(S)nn45)cc3Cl)nnc2s1
4. O=C1OC(c2ccco2)=N/C1=C\c1cccc([N+](=O)[O-])c1
5. Cc1ccc2c(C3Cc4ccccc4N3C(=O)/C=C\C(=O)O)c(C)[nH]c2c1 (stereo not given)
6. Cc1ccc(NC(=O)c2cccc([N+](=O)[O-])c2O)c([N+](=O)[O-])c1
7. CC(=O)/N=C1/N(/C=C2\C(=O)Oc3ccccc3C2=O)C(=O)/C(=C/c2ccc(Cl)cc2Cl)N1C
8. COc1ccc(C=O)cc1Oc1ccc(C[C@H]2c3c(cc(OC)c4c3Oc3cc5c(cc3O4)CCN(C)C5=O)CCN2C)cc1

42.3 µM (inactive)
4.29 µM (inactive)
> 100 µM (inactive)
> 100 µM (inactive)
> 100 µM (inactive)
5.58 µM (inactive)
> 10 µM (inactive)
9.04 µM (inactive)

Lab note: measured GI50 of COCC(O)CN1C(N)=NC(O)C1O (stereo not given) was > 100 µM (inactive)

----------
# System: MCF7
# Assay name: NCI tumour cell line growth inhibition, 48 h
Active and inactive are the calls of the source. No stated cut-off is given here; in the data, active = GI50 up to about 1.1 µM and inactive = higher.
What GI50 was measured for each of the following?

Quick batch: GI50 for everything below.
1. COc1ccc(/N=C(/C[S+]([O-])c2ccc(C)cc2)C(F)(F)F)cc1 (stereo not given)
2. CC(=O)OCC(OC(C)=O)C(OC(C)=O)C(OC(C)=O)C(/C=N\Nc1nc2ccccc2c(=O)[nH]1)=N/Nc1nc2ccccc2c(=O)[nH]1 (stereo not given)
3. CCCCCC/C=C\CCCCCCCCC(=O)c1cccc(OC)c1OC
4. C[C@@H](CC(=O)OCc1ccccc1)OC1OC(COC(=O)C(C)(C)C)C(OC(=O)C(C)(C)C)C(OC(=O)C(C)(C)C)C1OC(=O)C(C)(C)C (stereo not given in full)
5. CC(=O)Nc1ccc(/C=C/C(=O)N2CC(CCl)c3c2cc(N)c2ccccc32)cc1 (stereo not given)
6. CNc1ncnc2c1cnn2Cc1cn(CCCCO)nn1
7. COC(=O)C1=C(C)NC2(C)OC(C)(O)C(C(C)=O)C12C(C)=O (stereo not given)

1. > 100 µM (inactive)
2. > 100 µM (inactive)
3. > 10 µM (inactive)
4. > 100 µM (inactive)
5. < 0.005 µM (active)
6. > 100 µM (inactive)
7. > 100 µM (inactive)

Quick batch: GI50 for everything below.
1. NS(=O)(=O)c1ccc(NCc2nc3ccccc3[nH]2)cc1
2. N#CC(NC12CC3CC(CC(C3)C1)C2)c1ccccc1 (stereo not given)

1. > 100 µM (inactive)
2. > 100 µM (inactive)

Lab note: measured GI50 of CN(CCC(=O)N1CC(CCl)c2ccc([N+](=O)[O-])cc21)CCC(=O)N1CC(CCl)c2ccc([N+](=O)[O-])cc21 (stereo not given) was 11.4 µM (inactive)
